In this section we review reported % Blocking values for a set of binders.
TARGET OR TEST SYSTEM: T1, human CCR8 (human, UniProt P51685 1-355)
T1 construct: Native CCR8 on human PBMC (CCR8+ CD3+ or CCR8+ CD4+ lymphocytes); also called chemokine (C-C motif) receptor 8
T1 sequence (P51685 whole entry): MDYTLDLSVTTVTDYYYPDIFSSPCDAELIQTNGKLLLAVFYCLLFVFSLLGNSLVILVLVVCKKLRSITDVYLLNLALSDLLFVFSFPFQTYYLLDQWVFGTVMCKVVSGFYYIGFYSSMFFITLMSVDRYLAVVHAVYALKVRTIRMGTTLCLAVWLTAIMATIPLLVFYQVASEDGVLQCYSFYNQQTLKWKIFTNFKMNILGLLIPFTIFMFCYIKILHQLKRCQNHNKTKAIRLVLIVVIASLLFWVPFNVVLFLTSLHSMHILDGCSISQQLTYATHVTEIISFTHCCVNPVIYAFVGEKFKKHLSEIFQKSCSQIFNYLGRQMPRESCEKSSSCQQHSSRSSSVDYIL
METHOD SUMMARY: flow blocking, PBMC CCR8+CD4+; competitor PE-433H
Give just the number in %; leave the unit off.

These recorded examples may help you get a feel for the data.
AB3 (antibody, V domains shown, Hybridoma monoclonal; also called antibody 3; clone 3) VH: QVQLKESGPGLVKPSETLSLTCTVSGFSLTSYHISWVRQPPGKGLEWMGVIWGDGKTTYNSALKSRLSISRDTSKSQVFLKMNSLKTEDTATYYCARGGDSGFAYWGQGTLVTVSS VL: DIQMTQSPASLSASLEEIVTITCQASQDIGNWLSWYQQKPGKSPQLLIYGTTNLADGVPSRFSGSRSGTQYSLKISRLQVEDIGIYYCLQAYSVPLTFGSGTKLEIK; 7.39
AB10 (antibody, V domains shown, Hybridoma monoclonal; also called antibody 10; clone 10) VH: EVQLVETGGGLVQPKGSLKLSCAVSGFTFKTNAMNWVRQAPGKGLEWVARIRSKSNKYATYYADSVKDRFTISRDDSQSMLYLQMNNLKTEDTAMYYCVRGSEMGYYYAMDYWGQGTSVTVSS VL: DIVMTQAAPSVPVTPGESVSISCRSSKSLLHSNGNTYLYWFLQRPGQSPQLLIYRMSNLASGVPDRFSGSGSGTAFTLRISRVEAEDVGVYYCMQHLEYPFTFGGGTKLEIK; 28.4
AB13 (antibody, V domains shown, Hybridoma monoclonal; also called antibody 13; clone 13) VH: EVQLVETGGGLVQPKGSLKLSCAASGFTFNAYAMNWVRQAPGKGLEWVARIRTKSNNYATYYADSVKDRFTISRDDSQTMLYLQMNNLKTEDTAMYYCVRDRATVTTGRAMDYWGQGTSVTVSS VL: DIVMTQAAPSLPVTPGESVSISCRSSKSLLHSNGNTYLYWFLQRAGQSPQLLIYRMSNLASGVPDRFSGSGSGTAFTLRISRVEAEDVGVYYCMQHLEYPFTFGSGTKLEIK; 34.7

Data request: Which % Blocking reading was recorded for the binder AB14 (antibody, V domains shown, Hybridoma monoclonal; Same VH/VL entries as AB15; also called antibody 14; clone 14) VH: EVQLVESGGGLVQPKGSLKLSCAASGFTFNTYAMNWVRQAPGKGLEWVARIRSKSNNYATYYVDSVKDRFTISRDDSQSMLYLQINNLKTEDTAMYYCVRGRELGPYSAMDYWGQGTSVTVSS VL: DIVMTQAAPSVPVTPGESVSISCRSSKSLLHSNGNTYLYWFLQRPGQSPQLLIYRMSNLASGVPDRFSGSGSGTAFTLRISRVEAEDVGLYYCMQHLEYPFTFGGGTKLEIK ?
Data returned: 22.7

Data request: Which % Blocking reading was recorded for the binder AB4 (antibody, V domains shown, Hybridoma monoclonal; also called antibody 4; clone 4) VH: QVQLKESGPGLVKPSETLSLTCTVSGFSLTGYHVSWVRQPPGKGLEWMGVIWGDGRTTYNSALKSRLSISRDTSKSQVFLKMSSLKTEDTATYYCARGGDSGFAYWGQGTLVTVSS VL: DIQMTQSPASLSASLEEIVTITCQASQDIGNWLSWYQQKPGKSPQLLIYGATSLADGVPSRFSGSRSGTQFSLKISRLQVEDIGIYYCLQAYIVPLTFGSGTKLESK ?
Data returned: 1.14

Entry source: patent US20240360228A1
